Listed here are variants together with their documented denaturant m value.
B1: Subtilisin-chymotrypsin inhibitor-2A, P01053 (parent)
chain: MSSVEKKPEGVNTGAGDRHNLKTEWPELVGKSVEEAKKVILQDKPEAQIIVLPVGTIVTMEYRIDRVRLFVDKLDNIAQVPRVG

- Variants of: B1
- DETAILS: Hordeum vulgare; pH 6.3; 25 °C; GdnHCl; Fluorescence; MES 450 mM; reversible: yes; structure 2CI2; whole UniProt chain shown
READOUT_KIND: denaturant m value (kcal/mol/M)

MUTATION_STRING: V67A
READOUT_KIND: denaturant m value
RECORDED_VALUE: 1.76

MUTATION_STRING: I40V
READOUT_KIND: denaturant m value
RECORDED_VALUE: 1.99

MUTATION_STRING: L69A
READOUT_KIND: denaturant m value
RECORDED_VALUE: 1.98

MUTATION_STRING: I49A I77V
READOUT_KIND: denaturant m value
RECORDED_VALUE: 1.83

MUTATION_STRING: I77A
READOUT_KIND: denaturant m value
RECORDED_VALUE: 1.93

MUTATION_STRING: V39A
READOUT_KIND: denaturant m value
RECORDED_VALUE: 2.01

MUTATION_STRING: I49A
READOUT_KIND: denaturant m value
RECORDED_VALUE: 2.07

MUTATION_STRING: I49V
READOUT_KIND: denaturant m value
RECORDED_VALUE: 1.99

MUTATION_STRING: L28A
READOUT_KIND: denaturant m value
RECORDED_VALUE: 2.15

MUTATION_STRING: V71A
READOUT_KIND: denaturant m value
RECORDED_VALUE: 2.15
